- studySystem: FL-CHK1 (Homo sapiens, UniProt O14757)
- Construct: C-terminally His-tagged full-length human CHK1 (FL-CHK1); 6xHis (C); made in house; host or cells: baculovirus/insect cells
- Sequence (O14757 1-476): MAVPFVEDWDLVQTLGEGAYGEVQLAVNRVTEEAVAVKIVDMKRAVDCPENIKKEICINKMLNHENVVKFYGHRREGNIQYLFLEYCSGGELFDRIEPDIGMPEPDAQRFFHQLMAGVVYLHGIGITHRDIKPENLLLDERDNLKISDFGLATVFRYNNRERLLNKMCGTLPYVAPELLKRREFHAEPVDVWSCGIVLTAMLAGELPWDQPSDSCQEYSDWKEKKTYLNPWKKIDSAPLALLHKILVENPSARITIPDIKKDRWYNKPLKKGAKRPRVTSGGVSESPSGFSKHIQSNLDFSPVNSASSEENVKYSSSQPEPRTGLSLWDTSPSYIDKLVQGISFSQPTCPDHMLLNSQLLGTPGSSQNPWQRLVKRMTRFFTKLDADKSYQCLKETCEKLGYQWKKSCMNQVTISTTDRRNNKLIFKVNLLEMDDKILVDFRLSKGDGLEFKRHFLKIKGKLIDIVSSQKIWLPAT
- protocolDetails: CHK1 assay
- Format: biochemical
- testParameters: 20 μM; combinatorial library compounds
observationType: inhibition at 20 µM (%)
Give the value, in units of %, as a plain number.

Below, each entry is followed by its recorded inhibition at 20 µM result.
input: Recorded inhibition at 20 µM of CN(C)c1ccc(Nc2nc(N)c(-c3nc(-c4ccc(Cl)c(Cl)c4)cs3)s2)cc1 , please.
output: 5.1

input: And then CC(C)c1ccc(Nc2nc(N)c(-c3nc(-c4ccc5c(c4)CCC(=O)N5)cs3)s2)cc1 , what is it?
output: 20.9

input: And then CCc1cc2c(cc1-c1csc(-c3sc(Nc4ccc(C(C)C)cc4)nc3N)n1)C(C)(C)CCC2(C)C , what is it?
output: 6.5

Then this molecule:
input: Recorded inhibition at 20 µM of CC(C)c1ccc(Nc2nc(N)c(-c3nc(-c4cccc(Br)c4)cs3)s2)cc1 , please.
output: 12

====

- Test system: human umbilical vein endothelial cells (HUVEC)
- protocolDetails: HUVEC proliferation assay
- Type: cell-based
- testParameters: Homo sapiens, HUVEC, Table II screening results; 10 nM; crude combinatorial amide library; read-out: % inhibition @ 10 nM
observationType: inhibition at 0.01 µM (%)
Give the value, in units of %, as a plain number.

input: Recorded inhibition at 0.01 µM of CNC(=O)Nc1nc(N)c(-c2nc(-c3cccc(NC(=O)C(=O)Cc4ccccc4)c3)cs2)s1 , please.
output: 25

input: And then CNC(=O)Nc1nc(N)c(-c2nc(-c3cccc(NC(=O)c4ccccc4C(C)C)c3)cs2)s1 , what is it?
output: 26

input: And then CNC(=O)Nc1nc(N)c(-c2nc(-c3cccc(NC(=O)/C=C/c4ccccc4OC)c3)cs2)s1 , what is it?
output: 46

input: And then CNC(=O)Nc1nc(N)c(-c2nc(-c3cccc(NC(=O)CCC(=O)N4CCCC4)c3)cs2)s1 , what is it?
output: -10

Then this compound:
input: Recorded inhibition at 0.01 µM of CNC(=O)Nc1nc(N)c(-c2nc(-c3cccc(NC(=O)c4ccc(C(C)=O)s4)c3)cs2)s1 , please.
output: 97

====

- studySystem: CDK2/Cyclin A complex (Homo sapiens, UniProt P24941)
- protocolDetails: CDK2/Cyclin A assay
- Assay type: biochemical
- Set-up: concentration or dose not given beside the values
- testParameters: Table A combinatorial examples; footnote c not given
// returns FALSE unless CDK2^c is strictly below 2, in which case TRUE

Worked set:
input: Does the reported CDK2^c of COc1ccc2nc(-c3ccccc3)cc(-c3csc(-c4sc(Nc5cc(OC)c(OC)c(OC)c5)nc4N)n3)c2c1 stay below 2?
output: TRUE

input: And then COc1cccc(-c2csc(-c3sc(Nc4cc(OC)c(OC)c(OC)c4)nc3N)n2)c1 , what is it?
output: TRUE

input: And then COc1cc(Nc2nc(N)c(-c3nc(-c4ccc[nH]4)cs3)s2)cc(OC)c1OC , what is it?
output: FALSE

input: And then COc1cc(Nc2nc(N)c(-c3nc(-c4ccccc4OC(C)=O)cs3)s2)cc(OC)c1OC , what is it?
output: TRUE

input: And then COc1cc(Nc2nc(N)c(-c3nc(-c4ccc([N+](=O)[O-])cc4)cs3)s2)cc(OC)c1OC , what is it?
output: TRUE

Now consider a different compound.
input: Does the reported CDK2^c of CCCCCc1ccc(-c2csc(-c3sc(Nc4cc(OC)c(OC)c(OC)c4)nc3N)n2)cc1 stay below 2?
output: FALSE

====

- studySystem: phosphorylated VEGF-R2Δ50 (FLVK-P) (Homo sapiens, UniProt P35968, DEL940-989/E990V)
- Construct: VEGF-R2Δ50 contains residues 806-939 and 990-1171; made in house; host or cells: baculovirus/insect cells
- protocolDetails: VEGF-R2 coupled spectrophotometric (FLVK-P) assay
- Assay type: biochemical
- testParameters: Table 1; spectrophotometric assay
Reported Ki is given for each of the following molecules.
Give the value, in units of nM, as a plain number.

Below, each entry is followed by its recorded Ki result.
input: Recorded Ki of Nc1nc(NC(=O)c2ccccc2)sc1-c1nc(-c2cccc(NC(=O)c3cccc(Cl)c3)c2)no1 , please.
output: 114

input: And then COC(=O)Nc1nc(N)c(-c2nc(-c3cccc(NC(=O)c4ccc(Cl)s4)c3)cs2)s1 , what is it?
output: 80

input: And then COc1cccc(C(=O)Nc2cccc(-c3csc(-c4sc(Nc5cc(OC)c(OC)c(OC)c5)nc4N)n3)c2)c1 , what is it?
output: 1.9

input: And then Nc1nc(Nc2ccccc2)sc1-c1nc(-c2cccc(NC(=O)OCc3ccccc3)c2)cs1 , what is it?
output: 3.7

input: And then COc1cc(Nc2nc(N)c(-c3nc(-c4cccc(NS(=O)(=O)Cc5ccccc5)c4)cs3)s2)cc(OC)c1OC , what is it?
output: 98

input: And then COc1cc(Nc2nc(N)c(-c3nc(-c4cccc(NC(=O)c5ccc(C)s5)c4)cs3)s2)cc(OC)c1OC , what is it?
output: 0.85

Others:
input: Recorded Ki of COc1cc(Nc2nc(N)c(-c3nc(-c4cccc(NC(=O)c5cnc(C)s5)c4)cs3)s2)cc(OC)c1OC , please.
output: 2.5

====

Reported log10 of Ki is given for each of the following compounds.
- studySystem: phosphorylated VEGF-R2Δ50 (Homo sapiens, UniProt P35968, DEL940-989/E990V)
- Construct: VEGF-R2Δ50 contains residues 806-939 and 990-1171; made in house; host or cells: baculovirus/insect cells
- Sequence (P35968 with tags, fused parts or gaps DEL940-989/E990V limits assumed): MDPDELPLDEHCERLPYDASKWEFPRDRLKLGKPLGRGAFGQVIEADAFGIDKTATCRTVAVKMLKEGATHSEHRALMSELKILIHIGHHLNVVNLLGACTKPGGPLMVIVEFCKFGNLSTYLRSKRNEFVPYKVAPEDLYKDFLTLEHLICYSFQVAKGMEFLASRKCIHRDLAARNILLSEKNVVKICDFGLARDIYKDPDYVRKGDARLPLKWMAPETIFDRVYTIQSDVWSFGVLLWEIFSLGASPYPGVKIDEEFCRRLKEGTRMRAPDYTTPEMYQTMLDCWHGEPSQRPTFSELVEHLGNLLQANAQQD
- protocolDetails: VEGF-R2 ELISA assay
- Type: biochemical
- testParameters: Table 2; * determined with ELISA assay; read-out: FLVK-P Ki
Log10 applied to Ki; unit prior to transform: µM.

Below, each entry is followed by its recorded log10 of Ki result.
input: Recorded log10 of Ki of COc1cc(Nc2nc(N)c(C3=N[C@H](C)[C@H](c4ccccc4)O3)s2)cc(OC)c1OC , please.
output: 0.43

input: And then COc1cc(Nc2nc(N)c(C3=N[C@@H](C)C(c4ccccc4)O3)s2)cc(OC)c1OC (stereo in doubt) , what is it?
output: 2.25

input: And then Nc1nc(Nc2ccc(S(N)(=O)=O)cc2)sc1C1=NC(c2ccccc2)CO1 (centres unmarked) , what is it?
output: -0.11

input: And then COc1ccc(-c2csc(-c3sc(Nc4ccc(S(N)(=O)=O)cc4)nc3N)n2)cc1 , what is it?
output: 0.46

input: And then COc1cc(Nc2nc(N)c(C3=N[C@H](c4ccccc4)CO3)s2)cc(OC)c1OC , what is it?
output: 0.72

input: And then Nc1nc(Nc2ccc(S(N)(=O)=O)cc2)sc1-c1nc(O)cs1 , what is it?
output: 0.56

input: And then COc1cc(Nc2nc(N)c(C3=NCC(C)O3)s2)cc(OC)c1OC (racemic) , what is it?
output: 1.53

input: And then Cc1nc(-c2sc(Nc3ccc(S(N)(=O)=O)cc3)nc2N)sc1Cc1ccc(F)cc1 , what is it?
output: 1.40

Others:
input: Recorded log10 of Ki of CN(C)c1ccc(Nc2nc(N)c(-c3nn[nH]n3)s2)cc1 , please.
output: 1.72

input: And then COc1cc(Nc2nc(N)c(C3=NC(C)CO3)s2)cc(OC)c1OC (racemic) , what is it?
output: 1.86

input: And then Cc1sc(-c2sc(Nc3ccc(S(N)(=O)=O)cc3)nc2N)nc1-c1ccc(F)cc1 , what is it?
output: 0.28
